Procedure Summary: chemical genetic growth profiling, strain panel (AID 1159580);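 note: tested at 20 µM; growth read once vehicle control cultures reached saturation at 30 °C; 1 = growth at the plate median or of vehicle wells; lower values mean less growth of the strain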
Condition Description: S. cerevisiae deletion strains, growth OD, locus YNL209W, strain ssb2
The campaign covered roughly 5,500 compounds. About 2,000 (36%) were called active. About 18% were inconclusive and are not listed. Cut-off read from the data, not from the text of the source: active = normalized growth mostly below about 0.91 (no sharp cut-off); inconclusive = no clear call, values can overlap the other calls; inactive = mostly above about 0.92. This is one part of the list.
Field 'call' accepts active, inactive

(Q) In this assay, the call recorded for c1ccc2c(c1)CCCC2C1=NCCN1 (stereo not given) was what?
(A) inactive

(Q) In this assay, the call recorded for O=C(/C=C/c1ccc(O)c(O)c1)OCCc1ccccc1 was what?
(A) active

(Q) In this assay, the call recorded for O=C(/C=C/c1ccc(O)c(O)c1)OC(Cc1ccc(O)c(O)c1)C(=O)O (stereo not given) was what?
(A) inactive

(Q) In this assay, the call recorded for Clc1ccc(C(c2ccc(Cl)cc2)C(Cl)(Cl)Cl)cc1 was what?
(A) inactive

(Q) In this assay, the call recorded for CC#CC1(O)CCC2C3CCC4=CC(=O)CCC4=C3C(c3ccc(N(C)C)cc3)CC21C (stereo not given) was what?
(A) inactive

(Q) In this assay, the call recorded for COc1ccc(C(CN(C)C)C2(O)CCCCC2)cc1 (stereo not given) was what?
(A) inactive

(Q) In this assay, the call recorded for C=C1C2CC[C@@]3(C)[C@H](c4ccoc4)OC(=O)C[C@]13O[C@H]1CC(=O)C(C)(C)[C@H](C(OC(C)=O)C(=O)OC)[C@@]21C (stereo not given in full) was what?
(A) inactive

(Q) In this assay, the call recorded for O=S(=O)(O)c1cc(N=C=S)ccc1/C=C/c1ccc(N=C=S)cc1S(=O)(=O)O was what?
(A) inactive

(Q) In this assay, the call recorded for COc1ccc(C(c2ccc(OC)cc2)C(Cl)(Cl)Cl)cc1 was what?
(A) inactive

(Q) In this assay, the call recorded for C=CC[C@]1(O)CCC2C3CCC4=CC(=O)CCC4=C3C=C[C@@]21C (stereo not given in full) was what?
(A) inactive

---

Procedure Summary: chemical genetic growth profiling, strain panel (AID 1159580);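 note: tested at 20 µM; growth read once vehicle control cultures reached saturation at 30 °C; 1 = growth at the plate median or of vehicle wells; lower values mean less growth of the strain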
Condition Description: S. cerevisiae deletion strains, growth OD, locus YOR083W, strain WHI5 (second series), hits give low values
Out of some 5,500 compounds screened, about 2,000 (36%) were called active. Another 18% or so got no clear call; they are omitted. The list shows a part of the results.
Recorded Metric: normalized growth
I only need the number, thanks.

// normalized growth value for CNC(=O)[C@H]1O[C@@H](n2cnc3c(NCc4cccc(I)c4)ncnc32)C(O)[C@H]1O (some centres not stated) : 0.991

// normalized growth value for O=C(O)/C=C/c1ccc(O)c(O)c1 : 1.01

// normalized growth value for NCCCS(=O)(=O)O : 1.02

// normalized growth value for CCCCCCN(CCCCCC)C(=O)Cc1c(-c2ccc(F)cc2)[nH]c2ccccc12 : 1.12

// normalized growth value for O=c1[nH]c(=O)c2nc3ccccc3nc2[nH]1 : 0.997

// normalized growth value for NCCS(=O)(=O)O : 1.03

// normalized growth value for CN1CC[C@@]2(C)c3cc(O)ccc3N(C)C12 (some centres not stated) : 0.975

---

Procedure Summary: chemical genetic growth profiling, strain panel (AID 1159580);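 note: tested at 20 µM; growth read once vehicle control cultures reached saturation at 30 °C; 1 = growth at the plate median or of vehicle wells; lower values mean less growth of the strain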
Condition Description: S. cerevisiae deletion strains, growth OD, locus YAL030W, strain snc1, hits give low values
Out of some 5,500 compounds screened, about 2,000 (36%) were called active. Not shown: some 18% with an inconclusive outcome. Some of the results follow.
Field: normalized growth. Provide a value for each of the compounds that follow.
I only need the number, thanks.

// normalized growth value for OCCc1ccccc1 : 0.968

// normalized growth value for CCN(CC)C(=O)N1CCN(C)CC1 : 0.967

// normalized growth value for COc1ccc(OC)c(C(O)CNC(=O)CN)c1 (stereo unspecified) : 1.01

// normalized growth value for O=S(=O)(O)CCS : 0.993

// normalized growth value for CC(=O)O[C@H]1C[C@@H](OC(C)=O)C(C)(C)C2CC(=O)[C@]3(C)C(CC[C@@]4(C)[C@H](C(=O)O)OC(=O)C5OC543)[C@]21C (stereo partly specified) : 1.02

// normalized growth value for NCCS(=O)(=O)O : 0.981

// normalized growth value for O=C(O)CCCc1ccccc1 : 0.988

// normalized growth value for O=C(O)c1cc2cc(F)ccc2[nH]1 : 0.998

// normalized growth value for CC(=O)Oc1cc(OC(C)=O)c2c(c1)O[C@H](c1ccc(OC(C)=O)c(OC(C)=O)c1)[C@H](OC(C)=O)C2 : 1

// normalized growth value for Cc1ccc(C(=O)Nc2ccc(S(=O)(=O)O)c3cc(S(=O)(=O)O)cc(S(=O)(=O)O)c23)cc1NC(=O)c1cccc(NC(=O)Nc2cccc(C(=O)Nc3cc(C(=O)Nc4ccc(S(=O)(=O)O)c5cc(S(=O)(=O)O)cc(S(=O)(=O)O)c45)ccc3C)c2)c1 : 1.01

// normalized growth value for Nc1nc(=S)c2[nH]cnc2[nH]1 : 0.975
